System: platelet aggregation
protocolDescription: Platelet aggregation inhibitory activity (ex vivo) after oral administration
Format: in vivo
measurementSetup: Cavia porcellus, guinea pig, oral 0.1 mg/kg, 6 hrs, ADP 10 μg/ml, read-out: platelet aggregation inhibitory rate (%), 6 hrs
Experimental: A canula for collecting blood was inserted into the left common carotid artery of a guinea pig which was anesthetized with pentobarbital (30 mg/kg, i.p.). The blood (1 ml) was taken with a syringe containing 1/10 volume of 3.8% sodium citrate (Kettin-citrate, manufactured by Kokusai Shiyaku Ltd.), and the platelet aggregation ability thereof was measured (as a value before administration). […]
propertyMeasured: inhibition in vivo at 0.1 mg/kg (%)
Write the answer as a number in %, unit excluded.

Request: Quick check: inhibition in vivo at 0.1 mg/kg of O=C(CCC1CCNCC1)NCCC(=O)NC[C@H](NS(=O)(=O)c1ccccc1)C(=O)O ?
Response: 13

Request: Quick check: inhibition in vivo at 0.1 mg/kg of N=C(N)c1ccc(N2CCC(CC(=O)NC[C@H](NS(=O)(=O)c3ccccc3)C(=O)O)CC2)cc1 ?
Response: 3

Request: Quick check: inhibition in vivo at 0.1 mg/kg of COc1ccc(S(=O)(=O)N[C@@H](CNC(=O)CCCCOc2ccc(C(=N)N)cc2)C(=O)O)cc1 ?
Response: 0

Request: Quick check: inhibition in vivo at 0.1 mg/kg of N=C(N)c1ccc(C(=O)NCCC(=O)NC[C@H](NS(=O)(=O)c2cccc3ccccc23)C(=O)O)cc1 ?
Response: 100

Request: Quick check: inhibition in vivo at 0.1 mg/kg of N=C(N)c1ccc(C(=O)NCCC(=O)NC[C@H](NS(=O)(=O)c2ccccc2C(F)(F)F)C(=O)O)cc1 ?
Response: 100

Request: Quick check: inhibition in vivo at 0.1 mg/kg of N=C(N)c1ccc(C(=O)NCCC(=O)NC[C@H](NS(=O)(=O)c2ccc(F)cc2)C(=O)O)cc1 ?
Response: 100

Request: Quick check: inhibition in vivo at 0.1 mg/kg of N=C(N)c1ccc(OCCCCC(=O)NC[C@H](NS(=O)(=O)c2ccccc2)C(=O)O)cc1 ?
Response: 0

Request: Quick check: inhibition in vivo at 0.1 mg/kg of COc1ccc(S(=O)(=O)N[C@@H](CNC(=O)CC2CCN(c3ccc(C(=N)N)cc3)CC2)C(=O)O)cc1 ?
Response: 12

Request: Quick check: inhibition in vivo at 0.1 mg/kg of N=C(N)c1ccc(C(=O)N2CCCC(C(=O)NC[C@H](NS(=O)(=O)c3ccccc3)C(=O)O)C2)cc1 (stereo partly drawn) ?
Response: 18

Request: Quick check: inhibition in vivo at 0.1 mg/kg of Cc1ccc(S(=O)(=O)N[C@@H](CNC(=O)CCNC(=O)c2ccc(C(=N)N)cc2)C(=O)O)cc1 ?
Response: 100

Request: Quick check: inhibition in vivo at 0.1 mg/kg of Cc1cc(C)c(S(=O)(=O)N[C@@H](CNC(=O)CCCCc2ccc(C(=N)N)cc2)C(=O)O)c(C)c1 ?
Response: 80

Request: Quick check: inhibition in vivo at 0.1 mg/kg of N=C(N)c1ccc(OCCCCC(=O)NC[C@H](NS(=O)(=O)c2ccccc2[N+](=O)[O-])C(=O)O)cc1 ?
Response: 17

Request: Quick check: inhibition in vivo at 0.1 mg/kg of N=C(N)c1ccc(OCCCC(=O)NC[C@H](NS(=O)(=O)c2ccccc2C(F)(F)F)C(=O)O)cc1 ?
Response: 51

Request: Quick check: inhibition in vivo at 0.1 mg/kg of Cc1cc(C)c(S(=O)(=O)N[C@@H](CNC(=O)CCCCOc2ccc(C(=N)N)cc2)C(=O)O)c(C)c1 ?
Response: 0

Request: Quick check: inhibition in vivo at 0.1 mg/kg of Cc1cccc(S(=O)(=O)N[C@@H](CNC(=O)CCNC(=O)c2ccc(C(=N)N)cc2)C(=O)O)c1 ?
Response: 74
